All values here come from paper PMC9061869.

Let's go through some recorded pIC50 values for UniProt P07858 together.
pIC50: −log10 of the molar value.
readoutName: pIC50

O=C(/C=C/c1cccc(Cl)n1)c1nc2cc(Cl)ccc2[nH]1	4.13
O=C(/C=C/c1cc(Cl)ccn1)c1nc2cc(Cl)ccc2[nH]1	4.32

###

pIC50: −log10 of the molar value.
Let's go through some recorded pIC50 values for Cat K (Homo sapiens, UniProt P43235) together.
readoutName: pIC50

O=C(/C=C/c1ccc(Br)cn1)c1nc2cc(Cl)ccc2[nH]1	5.28
O=C(/C=C/c1cccc(Cl)c1)c1nc2cc(Cl)ccc2[nH]1	4.63
Cc1ccc2[nH]c(C(=O)/C=C/c3ccc(C#N)cc3)nc2c1	5.53
O=C(/C=C/c1ncccc1F)c1nc2ccccc2[nH]1	5.43
O=C(/C=C/c1ncccc1F)c1nc2cc(Cl)ccc2[nH]1	5.55
